Entries and their activity at 1 µM
target: MYST3 (Homo sapiens, UniProt Q92794); assay: Histone acetyltransferase (HAT) activity assay; type: biochemical; settings: 1µM; read-out: HATs Activity (%);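 also: selectivity screen of bromodomain probe compounds across a panel of histone acetyltransferases, read out as enzyme activity in %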
Sequence (Q92794 whole entry, species assumed): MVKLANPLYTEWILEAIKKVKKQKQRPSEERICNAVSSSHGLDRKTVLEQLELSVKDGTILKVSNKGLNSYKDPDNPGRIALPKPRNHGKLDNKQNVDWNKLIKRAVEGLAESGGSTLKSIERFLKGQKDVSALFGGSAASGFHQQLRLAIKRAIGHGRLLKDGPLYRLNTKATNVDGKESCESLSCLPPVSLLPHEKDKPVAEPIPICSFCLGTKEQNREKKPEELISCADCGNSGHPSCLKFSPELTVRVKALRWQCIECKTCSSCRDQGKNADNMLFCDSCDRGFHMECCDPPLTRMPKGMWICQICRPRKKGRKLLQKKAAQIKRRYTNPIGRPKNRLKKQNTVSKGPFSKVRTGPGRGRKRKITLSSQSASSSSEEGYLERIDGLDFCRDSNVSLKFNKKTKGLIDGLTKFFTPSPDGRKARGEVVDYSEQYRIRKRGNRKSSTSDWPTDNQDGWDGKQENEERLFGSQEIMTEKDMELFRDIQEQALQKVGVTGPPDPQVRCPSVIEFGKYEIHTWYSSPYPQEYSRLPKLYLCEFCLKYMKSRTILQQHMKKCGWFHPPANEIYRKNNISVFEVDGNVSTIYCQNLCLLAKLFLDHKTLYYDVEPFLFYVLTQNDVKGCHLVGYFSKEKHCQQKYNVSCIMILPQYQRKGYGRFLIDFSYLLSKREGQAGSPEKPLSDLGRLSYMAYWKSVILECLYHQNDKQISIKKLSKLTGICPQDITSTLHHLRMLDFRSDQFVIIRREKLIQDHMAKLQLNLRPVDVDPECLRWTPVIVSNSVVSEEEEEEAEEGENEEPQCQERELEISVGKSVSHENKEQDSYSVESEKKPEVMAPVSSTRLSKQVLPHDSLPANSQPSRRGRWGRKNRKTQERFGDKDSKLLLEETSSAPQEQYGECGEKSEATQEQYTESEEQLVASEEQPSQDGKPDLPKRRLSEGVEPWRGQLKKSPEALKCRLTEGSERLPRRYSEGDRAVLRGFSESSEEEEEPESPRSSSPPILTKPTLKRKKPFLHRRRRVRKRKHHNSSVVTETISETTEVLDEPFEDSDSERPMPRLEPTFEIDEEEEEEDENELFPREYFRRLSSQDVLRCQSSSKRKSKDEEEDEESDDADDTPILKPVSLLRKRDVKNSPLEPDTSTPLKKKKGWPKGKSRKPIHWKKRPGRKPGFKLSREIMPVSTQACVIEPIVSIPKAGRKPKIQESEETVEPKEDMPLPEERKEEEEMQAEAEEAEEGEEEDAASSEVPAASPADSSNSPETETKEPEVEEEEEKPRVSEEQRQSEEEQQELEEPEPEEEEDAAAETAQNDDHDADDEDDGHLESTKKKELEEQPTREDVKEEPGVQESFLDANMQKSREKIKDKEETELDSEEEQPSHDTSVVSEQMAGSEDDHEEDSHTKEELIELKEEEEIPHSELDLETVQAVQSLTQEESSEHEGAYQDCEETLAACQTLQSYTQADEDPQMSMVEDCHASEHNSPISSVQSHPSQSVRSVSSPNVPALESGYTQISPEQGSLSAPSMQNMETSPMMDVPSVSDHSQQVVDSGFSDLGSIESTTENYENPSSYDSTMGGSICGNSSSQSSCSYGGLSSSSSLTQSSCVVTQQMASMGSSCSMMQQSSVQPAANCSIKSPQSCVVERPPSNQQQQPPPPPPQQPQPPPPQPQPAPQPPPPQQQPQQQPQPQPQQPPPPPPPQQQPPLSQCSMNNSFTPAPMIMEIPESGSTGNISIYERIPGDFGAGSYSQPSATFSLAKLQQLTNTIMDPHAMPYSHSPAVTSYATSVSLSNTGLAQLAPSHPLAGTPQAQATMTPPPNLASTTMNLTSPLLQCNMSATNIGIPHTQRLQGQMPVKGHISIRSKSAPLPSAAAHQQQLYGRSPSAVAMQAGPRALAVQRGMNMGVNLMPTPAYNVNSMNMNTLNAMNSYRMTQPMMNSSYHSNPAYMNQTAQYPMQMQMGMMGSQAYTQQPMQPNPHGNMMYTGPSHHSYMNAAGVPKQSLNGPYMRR
Recorded Metric: activity at 1 µM (%)

>>> measured_value("CO[C@H]1CNC[C@@H](OCC2CCC(F)(F)CC2)[C@@H]1Nc1ncc(-c2cncc(C)c2)c2cc(C)c(=O)[nH]c12")
96
>>> measured_value("COc1cc(Cl)c(C(=O)N[C@@H](CN[C@H]2CC[C@@H](N)CC2)Cc2ccc(C#N)cc2)cc1-c1ccc(CN[C@H](C)c2ccc(C)cc2)o1")
96
>>> measured_value("CCC(=O)N1CCOc2c(cc(-c3ccc(OC)c(OC)c3)cc2OCC2CCCN(C)C2)C1 (stereo not shown)")
98
>>> measured_value("CN(C)CCCOc1ccc(-c2cc(NCCCn3cccn3)nc(S(C)(=O)=O)n2)cc1")
97
>>> measured_value("Cc1cc2c(cc1N1C(=O)c3cccc4c(CCCO)ccc(c34)C1=O)n(C)c(=O)n2C")
98
>>> measured_value("CC(=O)c1cc(-c2cc(C(=O)NC3CC3)ccc2C)c2ncccn12")
99
>>> measured_value("CN1C[C@H](Nc2cnn(C)c(=O)c2Br)C[C@H](c2ccccc2)C1")
101
>>> measured_value("COc1ccc(CCc2nc3cc(-c4c(C)noc4C)ccc3n2C[C@H](C)N2CCOCC2)cc1Cl")
103
>>> measured_value("O=C(C=CN1CC2CC1CN2c1ccccn1)c1ccccc1O (stereo not shown)")
95
>>> measured_value("COc1cc(-c2cn(C)c(=O)c3cnccc23)c(OC)cc1CN(C)C")
99
>>> measured_value("Cc1c(NC(=O)c2cc(C(N)=O)nc3cc(F)ccc23)c(C(F)(F)F)nn1Cc1ccc(C#N)cc1")
99
>>> measured_value("Cc1nnc2c3ccccc3c(N[C@@H](C)[C@H](c3ccccc3)N(C)C)nn12")
92
>>> measured_value("Cc1c(NC(=O)c2cc(C(N)=O)nc3cc(F)ccc23)c(C(F)(F)F)nn1Cc1ccc(C(C)(C)C)cc1")
99
